test: Oral bioavailability in dog; format: ADME, organism-based, Canis lupus familiaris; conditions: in vivo
readout.name: bioavailability (%)
Give bare numbers, in %.

structure.as.smiles	bioavailability (%)
Cc1cc(C)cc(-c2[nH]c3ccc(C(C)(C)C(=O)N4C[C@H]5CC[C@@H]4C5)cc3c2[C@H](C)CNCCc2ccncc2)c1	8.5

Please state, for each entry, its recorded bioavailability.
1. Cc1cc(C)cc(-c2[nH]c3ccc(C(C)(C)C(=O)N4CC5CCC4CC5)cc3c2[C@H](C)CNCCc2cc(C)c(=O)n(C)c2)c1
2. Cc1cc(C)cc(-c2[nH]c3ccc(C(C)(C)C(=O)N4CC5CCC4CC5)cc3c2[C@H](C)CNCCc2cccnc2)c1
3. Cc1cc(C)cc(-c2[nH]c3ccc(C(C)(C)C(=O)N4C5CCC4CC5)cc3c2[C@H](C)CNCCc2ccncc2)c1
4. Cc1cc(C)cc(-c2[nH]c3ccc(C(C)(C)C(=O)N4CC5CCC4CC5)cc3c2[C@H](C)CNCCc2ccncc2)c1
5. Cc1cc(C)cc(-c2[nH]c3ccc(C(C)(C)C(=O)N4CC5CCC4CC5)cc3c2[C@H](C)CNCCCCc2ccncc2)c1

[35, 12, 14, 25, 7]
